assay: qHTS assay for small molecule agonists of the antioxidant response element (ARE) signaling pathway (AID 651741); settings: HepG2 ARE-bla reporter, beta-lactamase FRET ratio, 16 h; series mostly up to 96 µM; further: % of control where 0% means no effect
Inconclusive results are not listed. Calls of active or inactive are those of the source. The call rests on the fitted dose curve; in most records, active means well fitted activation curve with a large enough effect in the signal ratio; inconclusive means small, poorly fitted or top-dose-only effect, or effect the other way, or a change in a side signal; inactive means flat fitted curve, though single readings scatter; the % refers to the signal ratio.
Outcome field: choose from TRUE for active, FALSE for inactive

Look up the recorded call for CCOC(=O)c1ccccc1C(=O)OCC in this test.
FALSE

Look up the recorded call for CCCCCCCCOC(=O)c1ccccc1C(=O)OCCCCCCCC in this test.
FALSE

====

tested on: HACAT; assay: qHTS assay to identify novel small-molecules to repurpose for Merkel cell carcinoma treatment (AID 1296009); settings: MCC and control cell lines, CellTiter-Glo viability, 72 h; at 44.8 µM (top of the series) unless noted; further: nearly all actives have a fitted effect of over 60% in size
Results filed as inconclusive are left out. Calls of active or inactive are those of the source. Calls come from the whole dose curve; as a rule, active = well fitted inhibition curve with a large enough effect; inconclusive = small, poorly fitted or top-dose-only effect; inactive = flat fitted curve, though single readings scatter.
Recorded metric: outcome

# Compound, Measured target, Result
rows = [
    ("CC1=C2C(=O)C3[C@@H](CC=C4C[C@@H](O)CC[C@@]43C)[C@@H]2CC[C@]12O[C@@H]1C[C@H](C)CN[C@H]1[C@H]2C (some centres undefined)", "HACAT", "inactive [at 17.4 µM]"),
    ("N#CC(OC1OC(COC2OC(CO)C(O)C(O)C2O)C(O)C(O)C1O)c1ccccc1 (centres undefined)", "HACAT", "inactive [at 17.4 µM]"),
    ("COC1CC(=O)C23C(=O)NC(CC(C)C)C2C(C)=C(C)C(OO)C3/C=C(\\C)CCC(O)C1O (centres undefined)", "HACAT", "inactive [at 17.4 µM]"),
]

====

test: P-glycoprotein substrates identified in KB-8-5-11 adenocarcinoma cell line, qHTS therapeutic library screen (AID 1346987); conditions: KB-8-5-11 (P-gp overexpressing) viability, CellTiter-Glo, 72 h; series mostly up to 44.5 µM; further: nearly all actives have a fitted effect of over 65% in size
Results filed as inconclusive are left out. Active and inactive are the calls of the source. Calls come from the whole dose curve; as a rule, active = well fitted inhibition curve with a large enough effect; inconclusive = small, poorly fitted or top-dose-only effect; inactive = flat fitted curve, though single readings scatter.
Outcome field: choose from 1.0 for active, 0.0 for inactive

Example entries and their recorded answers appear below.
# Molecule, Class assignment
measured = [
    ("Cn1ncnc1COc1nn2c(-c3c(F)cccc3F)nnc2cc1C1CCC1", 0.0),
    ("CC1C/C=C/C(O)C(O)CC/C=C/c2cc(O)cc(O)c2C(=O)O1 (stereo unspecified)", 0.0),
    ("COc1ccc(OC)c([C@@H](O)[C@H](C)N)c1", 0.0),
    ("COC1=CC(=O)O[C@@H](/C=C/c2ccccc2)C1", 0.0),
    ("[H+].[H+].[Hg+2].[O-]B([O-])[O-].[c-]1ccccc1", 1.0),
]

Look up the recorded call for COc1ccc2c3c1O[C@H]1[C@@H](O)C=C[C@H]4[C@@H](C2)NCC[C@@]341 in this test.
0.0

Look up the recorded call for O=C(CS(=O)C(c1ccccc1)c1ccccc1)NO (stereo unspecified) in this test.
0.0

Look up the recorded call for CNc1ccc(C(=O)CC(O)CCC(C)C2OC(=O)CC(O)CC(=O)CC(O)CC(O)CC(O)CC(O)CC3(O)CC(O)C(C(=O)OC)C(CC(O[C@@H]4O[C@H](C)[C@@H](O)[C@H](N)[C@@H]4O)/C=C/C=C/C=C/C=C/C=C/C=C/C=C/C2C)O3)cc1 (stereo partly specified) in this test.
0.0

Look up the recorded call for O=C/C=C/c1ccccc1 in this test.
0.0

Look up the recorded call for CC(C)CCC(=O)O[C@H]1CC[C@H]2[C@@H]3CCC4=CC(=O)CC[C@]4(C)[C@H]3CC[C@]12C in this test.
1.0

Look up the recorded call for CN(C)[C@@H]1C(=O)C(C(N)=O)=C(O)[C@@]2(O)C(=O)C3=C(O)c4c(O)ccc(Cl)c4[C@@](C)(O)[C@H]3C[C@@H]12 in this test.
0.0

====

Test system: CP329
Experiment: qHTS profiling for inhibitors of Plasmodium falciparum proliferation (AID 504749); further: nearly all actives have a fitted effect of over 60% in size
Details: P. falciparum in erythrocytes, SYBR Green DNA, 72 h; series mostly up to 28.7 µM
Procedure: NIH National Institute of Allergy and Infectious Diseases [NIAID] NIH Chemical Genomics Center [NCGC] […] Because mature erythrocytes lack DNA, only Plasmodium-derived DNA is detected. NCGC Assay Protocol Summary: The SYBR Green viability assay was adapted from a method described previously (Plouffe et al., 2008). […] The following morning, fluorescence intensity at 485(14) nm excitation and 535(25) nm emission wavelengths was measured on an EnVision (Perkin Elmer) plate reader. […]
Records with an inconclusive call do not appear. Activity calls are given as the source filed them. Calls follow the shape of the dose curve; as a rule, active = well fitted inhibition curve with a large enough effect; inconclusive = small, poorly fitted or top-dose-only effect; inactive = flat fitted curve, though single readings scatter.
Outcome field: choose from t (active), f (inactive)

Example entries and their recorded answers appear below.
# Molecule, Class assignment
measured = [
    ("CC(C)Nc1ccc(Nc2ccccc2)cc1", "t"),
    ("O=[N+]([O-])c1cc(I)c(O)c(I)c1", "f"),
    ("CCCCCCCCOC(=O)c1ccccc1C(=O)OCCCCCCCC", "f"),
]

Look up the recorded call for O=C1C2CC=CCC2C(=O)N1SC(Cl)(Cl)Cl (stereo not drawn) in this test.
f

Look up the recorded call for ClC1C(Cl)C(Cl)C(Cl)C(Cl)C1Cl (stereo not drawn) in this test.
f

Look up the recorded call for CCCCCl in this test.
f

Look up the recorded call for CCC1(c2ccccc2)C(=O)NC(=O)N(C(=O)c2ccccc2)C1=O (stereo not drawn) in this test.
f

Look up the recorded call for O=[N+]([O-])C(Br)(CO)CO in this test.
f

Look up the recorded call for CNC(=O)Oc1ccccc1C(=O)Nc1ccccc1 in this test.
f

Look up the recorded call for CC1CCC(C(C)C)C(OC(=O)c2ccccc2N)C1 (stereo not drawn) in this test.
f

====

assay: Cell Viability - LYMP2-001 (AID 921); conditions: LYMP2-001 lymphoblastoid cell viability; series mostly up to 92.2 µM;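 further: cells exposed to compound for 24 h at 37 °C; nearly all actives have a fitted effect of over 70% in size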; further: potency means the concentration at half of the fitted maximal effect
Records with an inconclusive call do not appear. Activity calls are given as the source filed them. Calls come from the whole dose curve; as a rule, active = well fitted cell-killing curve with a large enough effect; inconclusive = small, poorly fitted or top-dose-only effect; inactive = no such curve, though single readings can be large or run the other way.
Recorded metric: Potency

# Item smiles, Potency
rows = [
    ("Oc1cc(Cl)c(Cl)cc1Cl", "inactive"),
    ("[Cl-].[Cl-].[Hg+2]", "0.794 µM (active)"),
    ("CC(C)Nc1ccc(Nc2ccccc2)cc1", "12.6 µM (active)"),
    ("C[C@]12CCC(=O)C[C@@H]1CC[C@@H]1[C@@H]2CC[C@]2(C)[C@@H](O)CC[C@@H]12", "inactive"),
    ("O=CC=O", "inactive"),
    ("[O]=[Cd]", "inactive"),
]

Kindly consider the entry below.
Record CC(C)(C)c1cc(O)ccc1O . Reported Potency: 39.8 µM (active)

====

target: Nucleoprotein (Lymphocytic choriomeningitis virus (strain Armstrong)) (UniProt P09992); assay: qHTS for Inhibitors of the Functional Ribonucleoprotein Complex (vRNP) of Lymphocytic Choriomeningitis Arenaviruses (LCMV): LCMV Primary Screen - GLuc reporter signal (AID 1347086); settings: LCMV minigenome vRNP cell assay, Gaussia luciferase reporter; series mostly up to 57.5 µM; further: nearly all actives have a fitted effect of over 70% in size
Sequence (P09992 whole entry, looked up): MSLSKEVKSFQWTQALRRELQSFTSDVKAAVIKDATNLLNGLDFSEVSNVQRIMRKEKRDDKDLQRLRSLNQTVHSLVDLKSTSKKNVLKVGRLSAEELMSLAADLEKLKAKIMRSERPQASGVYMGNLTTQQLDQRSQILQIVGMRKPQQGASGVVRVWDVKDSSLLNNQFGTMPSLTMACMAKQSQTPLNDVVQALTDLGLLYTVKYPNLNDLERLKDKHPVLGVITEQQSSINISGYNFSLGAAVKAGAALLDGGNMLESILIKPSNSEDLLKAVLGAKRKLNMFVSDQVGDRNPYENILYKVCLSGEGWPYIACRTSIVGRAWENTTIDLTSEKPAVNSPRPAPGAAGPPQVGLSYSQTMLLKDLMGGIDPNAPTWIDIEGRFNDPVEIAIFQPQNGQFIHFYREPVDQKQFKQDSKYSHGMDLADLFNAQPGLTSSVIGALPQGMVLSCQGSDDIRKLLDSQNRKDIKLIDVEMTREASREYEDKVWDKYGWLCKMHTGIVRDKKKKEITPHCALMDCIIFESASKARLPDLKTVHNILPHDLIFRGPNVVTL
Records with an inconclusive call do not appear. Active and inactive are the calls of the source. The call rests on the fitted dose curve.
Outcome field: choose from 1 = active, -1 = inactive

# Compound, Class assignment
records = [
    ("CN1CCC(c2c[nH]c3ccc(O)cc23)CC1", -1),
    ("CN1CCc2cccc(Cl)c2CC1", -1),
    ("C[C@H](Cc1ccc2c(c1)OC(C(=O)O)(C(=O)O)O2)NC[C@H](O)c1cccc(Cl)c1", -1),
]

Look up the recorded call for CN1C2CCC1CC(OC(c1ccccc1)c1ccccc1N)C2 (stereo unspecified) in this test.
-1

Look up the recorded call for C[C@@H]1O[C@@H](O[C@H]2C[C@@H](O)[C@]3(CO)[C@@H]4C(CC[C@]3(O)C2)[C@@]2(O)CC[C@H]([C@@H]3COC(=O)C3)[C@@]2(C)C[C@H]4O)[C@H](O)[C@H](O)[C@H]1O (stereo partly specified) in this test.
1

====

Test system: 7G8
Test: qHTS profiling for inhibitors of Plasmodium falciparum proliferation (AID 504749); further: nearly all actives have a fitted effect of over 60% in size; further: potency means the concentration at half of the fitted maximal effect
Settings: P. falciparum in erythrocytes, SYBR Green DNA, 72 h; series mostly up to 28.7 µM
Description: NIH National Institute of Allergy and Infectious Diseases [NIAID] NIH Chemical Genomics Center [NCGC] […] Because mature erythrocytes lack DNA, only Plasmodium-derived DNA is detected. NCGC Assay Protocol Summary: The SYBR Green viability assay was adapted from a method described previously (Plouffe et al., 2008). […] The following morning, fluorescence intensity at 485(14) nm excitation and 535(25) nm emission wavelengths was measured on an EnVision (Perkin Elmer) plate reader. […]
Results filed as inconclusive are left out. Activity calls are given as the source filed them. Calls come from the whole dose curve; as a rule, active = well fitted inhibition curve with a large enough effect; inconclusive = small, poorly fitted or top-dose-only effect; inactive = flat fitted curve, though single readings scatter.
Recorded metric: Potency

// known answers, use as guide
# Compound, Result
rows = [
    ("O=[N+]([O-])c1ccc(F)c([N+](=O)[O-])c1", "inactive"),
    ("CCON=O", "inactive"),
    ("O=c1c2ccccc2[se]n1-c1ccccc1", "8.91 µM (active)"),
    ("O=[N+]([O-])C(Br)(CO)CO", "inactive"),
    ("CCCCNCC(O)c1ccc(O)cc1 (stereo not given)", "inactive"),
    ("O=C1CC[C@@]2(O)C3Cc4ccc(O)c5c4C2(CCN3CC2CC2)[C@H]1O5 (stereo not given in full)", "inactive"),
    ("CC(C)Nc1ccc(Nc2ccccc2)cc1", "8.91 µM (active)"),
    ("C[CH2][Hg][S]c1ccccc1C(=O)O", "1.12 µM (active)"),
]

Lab note: each compound below needs its Potency filled in.
1. CNC(=O)Oc1ccccc1C(=O)Nc1ccccc1
2. O=C(O)C(Cl)(Cl)Cl
3. ClC=C(Cl)Cl
4. CC(=O)OO
5. CC(C)CCON=O

10 µM (active)
inactive
inactive
inactive
inactive
